# Tested on: Raji
# protocol-text: Antiproliferative activity against human Raji cells by MTT assay
# Assay type: functional, cell-based
pIC50: −log10 of the molar value.
// pIC50 lookup, one value per entry

| test-smiles | pIC50 |
| --- | --- |
| CC[C@H](Nc1ncnc2[nH]cnc12)c1nc2cccc(F)c2c(=O)n1-c1ccccc1 | < 5.00 |
| COc1ncc(-c2ccc3ncnc(N[C@H]4CCCN(C(=O)[C@H](C)N)C4)c3c2)cc1C#N | < 5.00 |
| COc1ncc(-c2ccc3ncnc(N[C@H]4CCCN(C(=O)CN(C)C)C4)c3c2)cc1C#N | < 5.00 |
| Cn1c(=O)n(-c2ccc(C(C)(C)C#N)cc2)c2c3cc(-c4cnc5ccccc5c4)ccc3ncc21 | 6.28 |
| COc1ncc(-c2ccc3ncnc(N[C@H]4CCCN(C(=O)c5cccnc5)C4)c3c2)cc1C#N | < 5.00 |
